# TESTED_ON: Sushi domains (SD1/2) protein
# TEST_METHOD_NOTES: Fluorescence polarization (FP) competition assay with AJAP-1probe, calculated Ki
# Assay type: binding
# DETAILS: Table 16, ncAAs incorporated peptides; read-out: Ki (nM) mean ± SEM
Non-standard residues stand in square brackets, D forms with d. Residues, ends and D or L forms follow the SMILES beside them. 1Nal = N[C@@H](Cc1cccc2ccccc12)C(=O)O; 2Nal = N[C@@H](Cc1ccc2ccccc2c1)C(=O)O; 3Pal = N[C@@H](Cc1cccnc1)C(=O)O
PROPERTY_MEASURED: Ki

- COMPOUND: "CC(=O)N[C@@H](CCC(=O)O)C(=O)N[C@@H](CC(=O)O)C(=O)N[C@@H](CC(=O)O)C(=O)N[C@@H](CO)C(=O)N[C@@H](CC(=O)O)C(=O)N[C@H](C(=O)N[C@@H](Cc1c[nH]c2ccccc12)C(=O)N[C@@H](Cc1cccc2ccccc12)C(=O)NCC(=O)NCC(=O)N[C@@H](C)C(=O)N[C@@H](CC(=O)O)C(=O)N[C@H](C(=O)N[C@@H](CC(=O)O)C(N)=O)[C@@H](C)O)C(C)C [EDDSDVW(1Nala)GGADTD] (Ac-EDDSDVW[1Nal]GGADTD-NH2)"
  MEASURED: "499 nM"
- COMPOUND: "CCOc1ccc(C[C@H](NC(=O)[C@H](CC(=O)O)NC(=O)[C@H](CC(=O)O)NC(=O)[C@H](CC(=O)O)NC(=O)[C@H](CCC(=O)O)NC(C)=O)C(=O)N[C@H](C(=O)N[C@@H](CC(=O)O)C(=O)N[C@@H](Cc2c[nH]c3ccccc23)C(=O)NCC(=O)N2CCC[C@H]2C(=O)N[C@H](C(=O)N[C@@H](CO)C(=O)N[C@@H](CC(=O)O)C(=O)N[C@@H](CC(=O)O)C(=O)N[C@@H](CC(=O)O)C(N)=O)[C@@H](C)O)[C@@H](C)CC)cc1 [Peptide 34] (Ac-EDDDY(Et)IDWGPTSDDD-NH2)"
  MEASURED: "6.5 nM"
- COMPOUND: "CC(=O)N[C@@H](CCC(=O)O)C(=O)N[C@@H](CC(=O)O)C(=O)N[C@@H](CC(=O)O)C(=O)N[C@@H](CO)C(=O)N[C@@H](Cc1cccnc1)C(=O)N[C@H](C(=O)N[C@@H](Cc1c[nH]c2ccccc12)C(=O)N[C@@H](Cc1c[nH]c2ccccc12)C(=O)NCC(=O)NCC(=O)N[C@@H](C)C(=O)N[C@@H](CC(=O)O)C(=O)N[C@H](C(=O)N[C@@H](CC(=O)O)C(N)=O)[C@@H](C)O)C(C)C (Ac-EDDS[3Pal]VWWGGADTD-NH2)"
  MEASURED: "373 nM"
- COMPOUND: "CC(=O)N[C@@H](CCC(=O)O)C(=O)N[C@@H](CC(=O)O)C(=O)N[C@@H](CC(=O)O)C(=O)N[C@@H](CO)C(=O)N[C@@H](CC(=O)O)C(=O)N[C@H](C(=O)N[C@@H](Cc1c[nH]c2ccccc12)C(=O)N[C@@H](Cc1c[nH]c2ccccc12)C(=O)N[C@@H](Cc1ccc2ccccc2c1)C(=O)NCC(=O)N[C@@H](C)C(=O)N[C@@H](CC(=O)O)C(=O)N[C@H](C(=O)N[C@@H](CC(=O)O)C(N)=O)[C@@H](C)O)C(C)C (Ac-EDDSDVWW[2Nal]GADTD-NH2)"
  MEASURED: "75 nM"
- COMPOUND: "CC[C@H](C)[C@H](NC(=O)[C@H](CC(=O)O)NC(=O)[C@H](CC(=O)O)NC(=O)[C@H](Cc1ccc(O)cc1)NC(=O)[C@H](CC(=O)O)NC(=O)[C@H](CC(=O)O)NC(=O)[C@H](CO)NC(=O)[C@H](CC(=O)O)NC(=O)[C@H](CCC(=O)O)NC(=O)[C@H](Cc1ccc2ccccc2c1)NC(C)=O)C(=O)N[C@@H](CC(=O)O)C(=O)N[C@@H](CC(=O)O)C(=O)N[C@@H](CC(=O)O)C(=O)N[C@@H](Cc1c[nH]c2ccccc12)C(N)=O [Scr-20, reference compound] (Ac-[2Nal]EDSDDYDDIDDDW-NH2)"
  MEASURED: "31200 nM"

----------
# TESTED_ON: Sushi domains (SD1/2) protein
# TEST_METHOD_NOTES: Fluorescence polarization (FP) competition assay with AJAP-1probe, calculated Ki
# Type: binding
# DETAILS: Table 8, Ala-, D-amino acids and N-methylation scans of AJAP-1WT; read-out: Ki (nM) mean ± SEM
# Method: Fluorescence polarization (FP). FP assay was employed to determine the binding affinity of peptides in flat bottom black 384-well plates (Corning Life Science) using a Safire2 plate reader (Tecan). […] The fluorescence polarization values were measured using excitation/emission wavelengths of 530/580 nm. The instrumental Z-factor was adjusted to obtain the maximum fluorescence intensity and the G-factor was calibrated to give an initial millipolarization value of 20 mP. […]
Non-standard residues stand in square brackets, D forms with d. Residues, ends and D or L forms follow the SMILES beside them. NMeI = CC[C@H](C)[C@H](NC)C(=O)O; NMeT = CN[C@H](C(=O)O)[C@@H](C)O; Sar = CNCC(=O)O
// Ki lookup, one value per entry

- MOLECULE: "CC[C@H](C)[C@H](NC(=O)[C@H](Cc1ccccc1)NC(=O)[C@H](CCC(=O)O)NC(=O)[C@@H](NC(=O)[C@H](CCC(=O)O)NC(C)=O)[C@@H](C)O)C(=O)N[C@@H](C)C(=O)N[C@@H](Cc1c[nH]c2ccccc12)C(=O)NCC(=O)N1CCC[C@H]1C(=O)N(C)[C@H](C(=O)NCC(=O)N[C@@H](CC(=O)O)C(=O)N[C@@H](CCC(=O)O)C(=O)N[C@@H](CC(=O)O)C(N)=O)[C@@H](C)O (Ac-ETEFIAWGP[NMeT]GDED-NH2)"
  UNIT_OF_MEASURE: "nM"
  Ki: 77
- MOLECULE: "CC[C@H](C)[C@H](NC(=O)[C@H](C)NC(=O)[C@H](CCC(=O)O)NC(=O)[C@@H](NC(=O)[C@H](CCC(=O)O)NC(C)=O)[C@@H](C)O)C(=O)N[C@@H](C)C(=O)N[C@@H](Cc1c[nH]c2ccccc12)C(=O)NCC(=O)N1CCC[C@H]1C(=O)N[C@H](C(=O)NCC(=O)N[C@@H](CC(=O)O)C(=O)N[C@@H](CCC(=O)O)C(=O)N[C@@H](CC(=O)O)C(N)=O)[C@@H](C)O [ETEAIAWGPTGDED] (Ac-ETEAIAWGPTGDED-NH2)"
  UNIT_OF_MEASURE: "nM"
  Ki: 688
- MOLECULE: "CC[C@H](C)[C@@H](C(=O)N[C@@H](C)C(=O)N[C@@H](Cc1c[nH]c2ccccc12)C(=O)NCC(=O)N1CCC[C@H]1C(=O)N[C@H](C(=O)NCC(=O)N[C@@H](CC(=O)O)C(=O)N[C@@H](CCC(=O)O)C(=O)N[C@@H](CC(=O)O)C(N)=O)[C@@H](C)O)N(C)C(=O)[C@H](Cc1ccccc1)NC(=O)[C@H](CCC(=O)O)NC(=O)[C@@H](NC(=O)[C@H](CCC(=O)O)NC(C)=O)[C@@H](C)O [ETEF(N-Me-I)AWGPTGDED] (Ac-ETEF[NMeI]AWGPTGDED-NH2)"
  UNIT_OF_MEASURE: "nM"
  Ki: 33
- MOLECULE: "CC[C@H](C)[C@H](NC(=O)[C@H](Cc1ccccc1)NC(=O)[C@H](CCC(=O)O)NC(=O)[C@@H](NC(=O)[C@H](CCC(=O)O)NC(C)=O)[C@@H](C)O)C(=O)N[C@@H](C)C(=O)N[C@@H](Cc1c[nH]c2ccccc12)C(=O)NCC(=O)N(C)CC(=O)N[C@H](C(=O)NCC(=O)N[C@@H](CC(=O)O)C(=O)N[C@@H](CCC(=O)O)C(=O)N[C@@H](CC(=O)O)C(N)=O)[C@@H](C)O [Peptide 38] (Ac-ETEFIAWG[Sar]TGDED-NH2)"
  UNIT_OF_MEASURE: "nM"
  Ki: 32
- MOLECULE: "CC[C@H](C)[C@H](NC(=O)[C@H](Cc1ccccc1)NC(=O)[C@H](CCC(=O)O)NC(=O)[C@@H](NC(=O)[C@H](CCC(=O)O)NC(C)=O)[C@@H](C)O)C(=O)N[C@@H](C)C(=O)N[C@@H](Cc1c[nH]c2ccccc12)C(=O)NCC(=O)N1CCC[C@H]1C(=O)N[C@@H](C)C(=O)NCC(=O)N[C@@H](CC(=O)O)C(=O)N[C@@H](CCC(=O)O)C(=O)N[C@@H](CC(=O)O)C(N)=O [ETEFIAWGPAGDED] (Ac-ETEFIAWGPAGDED-NH2)"
  UNIT_OF_MEASURE: "nM"
  Ki: 89
